biological target: catalytic domain of MMP-14 (cdMMP-14) (human, UniProt P50281 114-287, limits assumed, biotinylated (Sulfo-NHS-LC-Biotin) where immobilised via streptavidin); experiment: cell-based or functional assay
Exercise: for every item that follows, state its recorded IC50 by FRET Assay.
State just the number; it will be interpreted in nM.

IC50 by FRET Assay for Fab 3F3 (Fab, V domains shown, also called R2C13; not shown: His tag at the C-terminus of the heavy chain) VH: EVQLVESGGGLVQPGGSLRLSCAASGFNIYSSSMHWVRQAPGKGLEWVAYIYPYSGYTYYADSVKGRFTISADTSKNTAYLQMNSLRAEDTAVYYCARLYNGWLMVEGIGSAREGPTWYAMDYWGQGTLVTVSS VL: DIQMTQSPSSLSASVGDRVTITCRASQSVSSAVAWYQQKPGKAPKLLIYSASSLYSGVPSRFSGSRSGTDFTLTISSLQPEDFATYYCQQGGVYAAHPFTFGQGTKVEIKR ?
970

IC50 by FRET Assay for Fab 32C2 (Fab, V domains shown, not shown: His tag at the C-terminus of the heavy chain) VH: EVQLVESGGGLVQPGGSLRLSCAASGFNLYYYSMHWVRQAPGKGLEWVAYISPYSSSTYYADSVKGRFTISADTSKNTAYLQMNSLRAEDTAVYYCARSQHAKKSTIIRMLEHQSRSGMQYVMDYWGQGTLVTVSS VL: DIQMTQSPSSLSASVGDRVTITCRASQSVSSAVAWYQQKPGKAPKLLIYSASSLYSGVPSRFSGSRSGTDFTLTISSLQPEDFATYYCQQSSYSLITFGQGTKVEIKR ?
8000

IC50 by FRET Assay for Fab 3E2 (Fab, V domains shown, not shown: His tag at the C-terminus of the heavy chain) VH: EVQLVESGGGLVQPGGSLRLSCAASGFNIYYYSIHWVRQAPGKGLEWVASIYPYSSYTYYADSVKGRFTISADTSKNTAYLQMNSLRAEDTAVYYCARGIKGLVFTGSQMKMLRRGNYNWYVMDYWGQGTLVTVSS VL: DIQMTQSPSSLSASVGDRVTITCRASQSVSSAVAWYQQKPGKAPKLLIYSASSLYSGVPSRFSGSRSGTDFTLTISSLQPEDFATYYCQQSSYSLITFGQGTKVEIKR ?
42
